- target.system: human serum albumin (HSA) Site I (Homo sapiens, UniProt P02768)
- Sequence (P02768 25-609): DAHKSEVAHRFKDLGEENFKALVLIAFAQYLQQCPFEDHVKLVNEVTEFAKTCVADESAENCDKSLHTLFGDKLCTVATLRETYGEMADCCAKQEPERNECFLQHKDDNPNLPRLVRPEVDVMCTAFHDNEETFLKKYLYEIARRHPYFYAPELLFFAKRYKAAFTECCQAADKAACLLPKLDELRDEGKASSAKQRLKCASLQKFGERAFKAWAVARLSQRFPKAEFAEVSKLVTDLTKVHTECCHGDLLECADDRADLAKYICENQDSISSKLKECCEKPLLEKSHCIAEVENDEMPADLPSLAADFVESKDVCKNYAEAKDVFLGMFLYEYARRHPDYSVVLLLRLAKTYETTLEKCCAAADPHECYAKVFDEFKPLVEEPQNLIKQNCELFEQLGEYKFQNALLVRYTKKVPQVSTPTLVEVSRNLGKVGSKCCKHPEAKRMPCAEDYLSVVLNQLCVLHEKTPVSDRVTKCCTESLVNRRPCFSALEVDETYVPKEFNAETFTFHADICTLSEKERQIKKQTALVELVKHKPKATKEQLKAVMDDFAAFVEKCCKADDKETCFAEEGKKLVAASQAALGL
- test.details: Displacement of the Site I-selective fluorescent probe DNSA from HSA
- Type: binding
- condition.context: 10 µM HSA, 20 µM DNSA, pH 7.4, 25°C; numeric EC50 values only in Figures 4-6
Counter-ions that a name gives are not always drawn.
value.type: Site I binding (DNSA displacement), result in words

In [3]: df
Out[3]:
                                   compound                  result
0                Oc1ccc(-c2cc(Cl)ccc2Cl)cc1  no significant binding
1  O=S(=O)(O)Oc1ccc(-c2ccc(Cl)cc2)cc1 [4’-PCB 3 sulfate]     significant binding
2                  Oc1ccc(-c2ccc(Cl)cc2)cc1     significant binding
3  O=S(=O)(O)Oc1ccc(-c2ccc(Cl)c(Cl)c2)cc1 [4’-PCB 12 sulfate]  no significant binding

Reference source: paper PMC4883002
